Values compiled from the NIST ThermoML archive (doi:10.1021/acs.jced.5b00330).

assay-info: Solid-liquid equilibrium temperature
condition: 100 kPa; Crystal; High pressure microscope
measured-parameter: Solid-liquid equilibrium temperature (K)

[in] Which measured Solid-liquid equilibrium temperature value corresponds to `CCCCCCCCCCCCO` ?
[out] 296.9

[in] Please report the recorded Solid-liquid equilibrium temperature for `CCCCCCCCCCCCCCO` .
[out] 310.6

[in] Item `CCCCCCCCCCCCCCCCCCO` has what recorded Solid-liquid equilibrium temperature?
[out] 330.9

[in] Report Solid-liquid equilibrium temperature for `CCCCCCCCCCCCCCCCO` please.
[out] 322.2

---

assay-info: Solid-liquid equilibrium temperature
condition: 80000 kPa; Crystal; High pressure microscope
measured-parameter: Solid-liquid equilibrium temperature (K)

[in] Suppose we examine the molecule `CCCCCCCCCCCCO` ; what Solid-liquid equilibrium temperature value has been reported?
[out] 311.7

[in] Param item = `CCCCCCCCCCCCCCO` ; retrieve measured Solid-liquid equilibrium temperature.
[out] 327.8

[in] Need Solid-liquid equilibrium temperature, item `CCCCCCCCCCCCCCCCCCO`
[out] 350.6

[in] Entry `CCCCCCCCCCCCCCCCO` has what Solid-liquid equilibrium temperature?
[out] 342.7

---

condition: Crystal; DTA
measured-parameter: Normal melting temperature (°C)

// worked examples, Normal melting temperature included
[in] Requested field: Normal melting temperature. Item: CCCCCCCCCCCCCCO [1-tetradecanol]
[out] 37.8

[in] Record request: Normal melting temperature value, item CCCCCCCCCCCCCCCCCCO [1-octadecanol]
[out] 58.2

I. CCCCCCCCCCCCCCCCO [1-hexadecanol]
II. CCCCCCCCCCCCO [dodecan-1-ol]
[in] Input pair: I , II . Output: entry with lower Normal melting temperature. In your reply, give the label of the chosen option.
[out] II
(II: 24.7 °C, I: 49.7 °C)

---

assay-info: Solid-liquid equilibrium temperature
condition: 20000 kPa; Crystal; High pressure microscope
measured-parameter: Solid-liquid equilibrium temperature (K)

[in] Quick one: Solid-liquid equilibrium temperature for `CCCCCCCCCCCCCCO` ?
[out] 314.2

[in] Quick one: Solid-liquid equilibrium temperature for `CCCCCCCCCCCCCCCCCCO` ?
[out] 335.8

[in] Report Solid-liquid equilibrium temperature for `CCCCCCCCCCCCO` please.
[out] 300.5

[in] Name the reported Solid-liquid equilibrium temperature value associated with the compound `CCCCCCCCCCCCCCCCO`
[out] 327.3

---

assay-info: Solid-liquid equilibrium temperature
condition: 60000 kPa; Crystal; High pressure microscope
measured-parameter: Solid-liquid equilibrium temperature (K)

[in] // Solid-liquid equilibrium temperature lookup, key: CCCCCCCCCCCCO [dodecan-1-ol]
[out] 308.4

[in] Find the recorded Solid-liquid equilibrium temperature belonging to CCCCCCCCCCCCCCCCCCO [1-octadecanol] and report it.
[out] 345.9

[in] Return reported Solid-liquid equilibrium temperature; argument: CCCCCCCCCCCCCCCCO [1-hexadecanol]
[out] 337.6

[in] Return reported Solid-liquid equilibrium temperature; argument: CCCCCCCCCCCCCCO [1-tetradecanol]
[out] 323.8

---

assay-info: Solid-liquid equilibrium temperature
condition: 40000 kPa; Crystal; High pressure microscope
measured-parameter: Solid-liquid equilibrium temperature (K)

[in] I would be grateful if you could share the reported Solid-liquid equilibrium temperature for `CCCCCCCCCCCCCCO` .
[out] 319

[in] Could you share which Solid-liquid equilibrium temperature value was measured for `CCCCCCCCCCCCCCCCO` ?
[out] 332.4

[in] Need Solid-liquid equilibrium temperature of `CCCCCCCCCCCCCCCCCCO` , thanks.
[out] 340.9

[in] // lookup Solid-liquid equilibrium temperature for `CCCCCCCCCCCCO`
[out] 304.6
